Tested on: NCI-H460 lung
Assay: NCI tumour cell line growth inhibition, 48 h

| compound | TGI |
| --- | --- |
| O=C1C(Cl)=C(Nc2cccc(O)c2)C(=O)N1c1cccc(Cl)c1Cl | 51.5 µM |
| ClC[Si]12OCCN(CCO1)CCO2 | > 100 µM |
| CCN1CCN(C(=O)[C@]23CCC(C)(C)C[C@@H]2C2=CC[C@@H]4[C@@]5(C)C/C(=C/c6cccnc6)C(=O)C(C)(C)[C@@H]5CC[C@@]4(C)[C@]2(C)CC3)CC1 | 2.93 µM |
| Cn1c(=O)c2nc(N3CCCCC3)cnc2n(C)c1=O | > 100 µM |
| COc1ccc(-c2coc3cc(OC)cc(O)c3c2=O)cc1 | > 100 µM |
| COc1ccc(Cn2c(Br)c3c(c2-c2cc(OC)c(OC)c(OC)c2)CCc2sc(NC(C)=O)nc2-3)cc1 | > 100 µM |
| CC(=O)OC1COC(Nn2c(=O)[nH]c3ccccc3c2=O)C(OC(C)=O)C1OC(C)=O (centres undefined) | > 100 µM |
| CCC/C(=N\NC(=O)c1cc2ccccc2cc1O)C(CC)C(=O)CCC(=O)N(Cc1ccccc1)Cc1ccccc1 (centres undefined) | > 100 µM |
| c1ccc(C2N3CCCCC3[C@@H]3c4[nH]c5ccccc5c4CCN23)cc1 (some centres undefined) | > 100 µM |

* * *

Reported GI50 by item:
Tested on: OVCAR-5 ovarian
Assay: NCI tumour cell line growth inhibition, 48 h
measure: GI50

| compound | measure | observed.measurement |
| --- | --- | --- |
| CCCCCCCCCC(CCCC(O)CC(=O)O)OC1OC(COC2OC(C)C(O)C(O)C2O)C(O)C(O)C1OC1OC(CO)C(O)C(O)C1OC1OC(C)C(O)C(O)C1O (centres undefined) | GI50 | > 40 µM |
| COc1ccc(/C=C/C(=O)c2ccc(Nc3ccnc4cc(Cl)ccc34)cc2)cc1 | GI50 | > 100 µM |
| COc1cc(C2C(C#N)=C(N)Oc3cc(O)ccc32)cc(OC)c1OC (centres undefined) | GI50 | 2.36 µM |
| COc1ccc(Nc2ncccc2C(=O)NCc2cn(Cc3cccc(Oc4ccccc4)c3)nn2)cc1 | GI50 | 4.23 µM |

* * *

Tested on: M14 melanoma
Assay: NCI tumour cell line growth inhibition, 48 h

| smiles.notation | TGI |
| --- | --- |
| CCN1CCN(C(=O)[C@]23CCC(C)(C)C[C@@H]2C2=CC[C@@H]4[C@@]5(C)C/C(=C/c6cccnc6)C(=O)C(C)(C)[C@@H]5CC[C@@]4(C)[C@]2(C)CC3)CC1 | 3.15 µM |
| Cc1cc(NCCCCCCNc2cc(C)nc3ccc(Cl)cc23)c2cc(Cl)ccc2n1 | > 100 µM |
| C[C@@H]1OC(=O)/C(=C\N(C)C)[C@H]2CC(=O)N(CCc3cn(S(=O)(=O)C(F)(F)F)c4ccccc34)C[C@H]12 | > 100 µM |
| Cc1cc(C#N)c(Nc2c(C)cccc2[N+](=O)[O-])s1 | > 100 µM |
| COc1c(O)cc(C(=O)O[C@@H]2Cc3c(O)cc(O)cc3O[C@@H]2c2cc(O)c(O)c(O)c2)cc1O | > 100 µM |
| CC/C=C\C/C=C\C[C@H]1C/C=C2/C(=O)C=C[C@H]2C/C=C\CCC(=O)O1 | > 14.3 µM |
| Cc1n[nH]c(=O)n1N1C(=O)c2ccccc2C1=O | > 100 µM |
| Cc1ccccc1/C=C1\CN(C(=O)OC(C)(C)C)C/C(=C\c2ccccc2C)C1=O | 13.5 µM |
| O=C(CSc1nnc(-c2ccc(N=Cc3ccc(Cl)cc3)cc2)o1)Nc1cccc(Cl)c1 | > 100 µM |
